These measurements were taken from paper PMC5540273.

system: p38-delta; settings: concentration: 1 μM, replicates: in singlicate; n = 1;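 further: KINOMEscan kinase panel screen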
Lab note: compare %Inh against 20%. Equal or greater, write t. Smaller, write f.

compound="COc1cc2ncn(-c3cc(OCc4sccc4Cl)c(C(N)=O)s3)c2cc1OC [GSK448459]" class_label=t
compound="C[C@@H](Oc1cc(-n2cnc3ccc(NC(=O)NC(C)(C)C)cc32)sc1C(N)=O)c1ccccc1Cl [GSK346294]" class_label=t

Q) Say whether Fc1ccc(-c2nn3c(OCC(F)(F)F)cccc3c2-c2ccncc2)cc1 [GW514784] shows %Inh of 20% or more.
A) t

Q) Same read-out for CN1c2ccc(NCc3ccc(F)cc3)cc2-c2c(cnn2C)S1(=O)=O ?
A) f

Q) Also CC(=O)Nc1ccc(COc2ccc(Nc3ccnc4cc(-c5ccccn5)ccc34)cc2)cc1.Cl [GW440148] , if possible.
A) t

Q) Then what about the compound Nc1nc(-c2ccc3c(N)n[nH]c3c2)cc(N2CCCC2)n1 [GSK2227430] ?
A) t

Q) Same question, O=C(Nc1cccc(-c2nn3ncccc3c2-c2ccnc(Nc3cccc(C(F)(F)F)c3)n2)c1)c1c(F)cccc1F [GSK299495] this time
A) t

Q) Another: O=C(Nc1n[nH]c2cc(-c3cccc(F)c3)ccc12)C1CC1 [SB-735464]
A) f

---

system: p38-alpha; construct: gene MAPK14; conditions: concentration: 1 μM, replicates: in singlicate; n = 1
test.readout: %Inh
Write the quantity with the unit trailing the number.

molecule="COc1ccc(COc2cc(-n3cnc4ccccc43)sc2C(N)=O)cc1 [GSK1024304]" result=35%
molecule="O=c1cc(N2CCOCC2)nc2n(Cc3cccc(Cl)c3Cl)c(C3CC3)nn12 [GSK2358994]" result=0%
molecule="Cl.Oc1cccc(Nc2ccnc3cc(-c4ccncc4)ccc23)c1 [GW494601]" result=50%
molecule=CCc1ccnc(/C=C/c2n[nH]c3cc(Sc4ccccc4C(=O)NC)ccc23)c1 result=0%
molecule="COc1ccc(Nc2nccc(N3CCC(NC(=O)Nc4cccc(C(C)=O)c4)C3)n2)cc1 (stereo not drawn) [GSK1379731]" result=0%
molecule="COc1ccc(Nc2ncc(C#N)c(Nc3ccccc3C(N)=O)n2)cc1N1CCN(C)CC1.Cl [GSK1558669]" result=0%

Quick batch: %Inh for everything below.
1. CCc1nc(-c2cccc(C)c2)c(-c2ccnc(NCc3ccccc3)c2)s1
2. COc1cc2ncn(-c3cc(OCc4sccc4Cl)c(C(N)=O)s3)c2cc1OC [GSK448459]
3. Fc1ccc(-c2ncn(CCCN3CCOCC3)c2-c2cccnc2)cc1 [SB-211743]
4. Cc1nnc(-c2ccc3occ(-c4ccc(C(C)O)cc4)c3c2)o1 (stereo not drawn)
5. Cc1c(Cn2c(C)nn3c(=O)cc(N4CCOC(C)C4)nc23)cccc1C(F)(F)F (stereo not drawn) [GSK2344444]
6. NS(=O)(=O)CCc1cccc(Nc2nccc(-c3c(-c4cccc(NC(=O)c5c(F)cccc5F)c4)nn4ccccc34)n2)c1 [GSK336735]
7. O=c1cc(N2CCOCC2)nc2n(Cc3cccc(F)c3)ccn12 [GSK2297430]
8. N#Cc1c(N2CCOCC2)sc(-c2ccn[nH]2)c1-c1ccc(Cl)cc1

A)
99.8%
0%
0%
10%
0%
97.8%
43%
7%

For every item in the list below, what is its measured %Inh?
1. COc1cc(Nc2nccc(N3CCC(NC(=O)c4cccc(NC(C)=O)c4)C3)n2)cc(OC)c1OC (stereo not drawn) [GSK1379754]
2. CC(C)Oc1ccc2c(-c3ccnc(Nc4ccc(N5CCN(C)CC5)cc4)n3)cnn2n1 [GW696155]
3. COc1ccc(S(=O)(=O)NC2CCN(c3cc(C)nc(Nc4cccc(C#N)c4)n3)CC2)cc1.O=C(O)C(F)(F)F [GSK1653539]
4. Cc1nnc(-c2ccc3ncc(-c4ccc(S(C)=O)cc4)n3c2)o1 (stereo not drawn)

A)
1. 0%
2. 17%
3. 9%
4. 9%
